Source: patent US20130165520A1

- measured on: UniProtKB Q9UBN7
- Sequence (Q9UBN7 whole entry): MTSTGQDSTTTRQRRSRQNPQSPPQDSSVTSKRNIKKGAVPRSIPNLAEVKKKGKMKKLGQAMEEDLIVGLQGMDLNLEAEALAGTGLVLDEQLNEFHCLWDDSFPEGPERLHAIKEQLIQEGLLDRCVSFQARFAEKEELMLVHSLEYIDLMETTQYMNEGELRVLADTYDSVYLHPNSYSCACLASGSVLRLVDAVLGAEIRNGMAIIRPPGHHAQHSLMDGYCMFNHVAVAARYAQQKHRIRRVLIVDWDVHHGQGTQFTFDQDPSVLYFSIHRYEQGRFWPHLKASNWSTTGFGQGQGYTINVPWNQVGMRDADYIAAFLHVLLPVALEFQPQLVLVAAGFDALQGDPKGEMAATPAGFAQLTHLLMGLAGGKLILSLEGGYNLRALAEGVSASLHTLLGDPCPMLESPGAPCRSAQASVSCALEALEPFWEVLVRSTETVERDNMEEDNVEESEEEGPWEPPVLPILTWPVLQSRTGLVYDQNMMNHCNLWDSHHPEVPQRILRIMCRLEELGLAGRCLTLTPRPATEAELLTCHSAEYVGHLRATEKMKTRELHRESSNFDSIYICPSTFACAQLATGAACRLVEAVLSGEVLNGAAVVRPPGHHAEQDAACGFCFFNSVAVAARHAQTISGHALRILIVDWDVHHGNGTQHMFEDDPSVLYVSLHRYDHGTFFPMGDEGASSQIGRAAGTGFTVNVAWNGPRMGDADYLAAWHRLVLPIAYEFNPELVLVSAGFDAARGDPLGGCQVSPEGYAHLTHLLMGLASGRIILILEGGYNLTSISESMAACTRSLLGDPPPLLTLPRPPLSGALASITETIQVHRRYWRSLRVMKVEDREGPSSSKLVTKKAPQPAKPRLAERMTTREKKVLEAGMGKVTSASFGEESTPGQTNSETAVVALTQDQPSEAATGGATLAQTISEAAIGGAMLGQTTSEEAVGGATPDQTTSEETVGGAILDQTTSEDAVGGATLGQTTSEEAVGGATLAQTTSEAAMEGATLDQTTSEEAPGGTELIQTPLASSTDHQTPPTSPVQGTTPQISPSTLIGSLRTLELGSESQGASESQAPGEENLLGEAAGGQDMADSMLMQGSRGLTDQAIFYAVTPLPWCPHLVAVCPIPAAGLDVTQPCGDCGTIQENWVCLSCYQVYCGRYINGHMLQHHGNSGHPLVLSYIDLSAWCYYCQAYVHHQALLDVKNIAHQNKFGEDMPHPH
pIC50: −log10 of the molar value.
quantity name: pIC50

given_smiles=CC1(C)CCC(C)(C)c2cc(-c3ccc4cc(C(=O)NO)ccc4c3)ccc21 measured_on="UniProtKB Q9UBN7" experimental_value=6.83
